System: LNCaP cells
assay.protocol: Inhibition of the proliferation of LNCaP cells (crystal violet assay)
Format: cell-based, human
measurement.context: Homo sapiens, LNCaP; 1 μM test substance, compared to cell growth in the presence of 0.1 nmol of R1881; read-out: % Inhibition at 1 μM
What inhibition at 1 µM was measured for each of the following?
Give the number; % is assumed, so skip it.

Query block: For CC(C)(O)[C@H]1CCCN1CCCCCCCCN1C(=S)N(c2ccc(C#N)c(C(F)(F)F)c2)C(=O)C1(C)C [Example 44] , what is its reported inhibition at 1 µM?
Result block: 115

Query block: For CC1(C)C(=O)N(c2ccc(C#N)c(C(F)(F)F)c2)C(=S)N1CCCCCCCCCN1CCC[C@@H]1CO [Example 12] , what is its reported inhibition at 1 µM?
Result block: 93

Query block: For CC1(C)C(=O)N(c2ccc(C#N)c(C(F)(F)F)c2)C(=S)N1CCCCCCCCN1CC[C@H](C(N)=O)C1 [Example 51] , what is its reported inhibition at 1 µM?
Result block: 97

Query block: For CC1(C)C(=O)N(c2ccc(C#N)c(C(F)(F)F)c2)C(=S)N1CCCCCCCCN1C2CCC1CC(O)C2 (stereo not shown) [Example 24] , what is its reported inhibition at 1 µM?
Result block: 102
